target.desc: T1, Nod2 (wild-type, HA-tagged) (human, UniProt Q9HC29 1-1040)
T1 construct: Expressed in HEK293T cells and tested in cell extracts by co-immunoprecipitation; also called Nod2a; wt Nod2; not shown: HA tag; the plasmid is named both pcDNA3-Nod2-HA and pcDNA3-HA-Nod2, so the end that carries the ta
assay.info: co-immunoprecipitation, HEK293T extracts
property: binding result

caspase-4 (enzyme, UniProt P49662 1-377, looked up, Construct and tag not described) MAEGNHRKKPLKVLESLGKDFLTGVLDNLVEQNVLNWKEEEKKKYYDAKTEDKVRVMADSMQEKQRMAGQMLLQTFFNIDQISPNKKAHPNMEAGPPESGESTDALKLCPHEEFLRLCKERAEEIYPIKERNNRTRLALIICNTEFDHLPPRNGADFDITGMKELLEGLDYSVDVEENLTARDMESALRAFATRPEHKSSDSTFLVLMSHGILEGICGTVHDEKKPDVLLYDTIFQIFNNRNCLSLKDKPKVIIVQACRGANRGELWVRDSPASLEVASSQSSENLEEDAVYKTHVEKDFIAFCSSTPHNVSWRDSTMGSIFITQLITCFQKYSWCCHLEEVFRKVQQSFETPRAKAQMPTIERLSMTRYFYLFPGN = no binding
TRADD (other, UniProt Q15628 1-312, looked up, Construct and tag not described) MAAGQNGHEEWVGSAYLFVESSLDKVVLSDAYAHPQQKVAVYRALQAALAESGGSPDVLQMLKIHRSDPQLIVQLRFCGRQPCGRFLRAYREGALRAALQRSLAAALAQHSVPLQLELRAGAERLDALLADEERCLSCILAQQPDRLRDEELAELEDALRNLKCGSGARGGDGEVASAPLQPPVPSLSEVKPPPPPPPAQTFLFQGQPVVNRPLSLKDQQTFARSVGLKWRKVGRSLQRGCRALRDPALDSLAYEYEREGLYEQAFQLLRRFVQAEGRRATLQRLVEALEENELTSLAEDLLGLTDPNGGLA = no binding
RICKΔCARD (residues 1-374), Flag-tagged (other, not shown: small tags and cut ends, also called pcDNA3-Flag-RICK(1-374)) MNGEAICSALPTIPYHKLADLRYLSRGASGTVSSARHADWRVQVAVKHLHIHTPLLDSERKDVLREAEILHKARFSYILPILGICNEPEFLGIVTEYMPNGSLNELLHRKTEYPDVAWPLRFRILHEIALGVNYLHNMTPPLLHHDLKTQNILLDNEFHVKIADFGLSKWRMMSLSQSRSSKSAPEGGTIIYMPPENYEPGQKSRASIKHDIYSYAVITWEVLSRKQPFEDVTNPLQIMYSVSQGHRPVINEESLPYDIPHRARMISLIESGWAQNPDERPSFLKCLIELEPVLRTFEEITFLEAVIQLKKTKLQSVSSAIHLCDKKKMELSLNIPVNHGPQEESCGSSQLHENSGSPETSRSLPAPQDNDFLS = no binding
